system: MOLT-4 leukemia; experiment: NCI-60 one-dose screen, 48 h; settings: 10 µM unless noted
The panel holds about 83,000 compounds, 20% with a hit somewhere; the sample as a whole holds those more often. Calls of active or inactive are those of the source. How the source made its calls: active means growth percent below 10; inactive means the rest.
Classes used: active, inactive

| compound | category |
| --- | --- |
| CC(C)CC1NC(=O)C(CCCN)NC(=O)C(C(C)C)NC(=O)C2CCCN2C(=O)C(Cc2ccccc2)NC(=O)C(CC(C)C)NC(=O)C(CCCN)NC(=O)C(C(C)C)NC(=O)C2CCCN2C(=O)C(Cc2ccccc2)NC1=O (stereo not given) | active |
| C=CCNC(=O)/C(=C/c1cccc([N+](=O)[O-])c1)NC(=O)c1ccccc1 | inactive |
| BrC1CC(Br)c2c1c1c(c3c2C(Br)CC3Br)C(Br)CC1Br (stereo not given) | inactive |
| CN1C(=O)C(C2=NN(C=O)C(c3ccc(F)cc3)C2)C(=O)N(C)C1=O (stereo not given) | inactive |
| Nc1ccn(C2O[C@H](CO)[C@@H](O)[C@@H]2O)c(=O)n1 (stereo not given in full) | inactive |
| Fc1ccccc1C1c2ccccc2-c2nccn21 (stereo not given) | inactive |
| COc1ccc(-c2ccc(O)c(C(=O)/C=C/c3cc(OC)c(OC)c(OC)c3)c2)cc1 | inactive |
| COC(=O)C1(NC(=O)CNC(=O)OCc2ccccc2)CCCC1 | inactive |
| [N-]=[N+]=NCc1cccc(/C(O)=C/C(=O)C(=O)O)c1 | active |
| CCCCc1n(Cc2ccc3ccccc3c2)cc[n+]1Cc1ccc2ccccc2c1 | active |

###

tested on: OVCAR-5 ovarian; assay: NCI-60 one-dose screen, 48 h; conditions: 10 µM unless noted
The panel holds about 83,000 compounds, 20% with a hit somewhere; the sample as a whole holds those more often. The source made the active and inactive calls. The calls were made as follows: active = growth percent below 10; inactive = the rest.
Outcome codes: label 1 for active, label 0 for inactive

| given_smiles | category |
| --- | --- |
| O=C1NC(=O)/C(=C\c2ccco2)S1 | label 0 |
| O=c1sc2ncnc3ncn1c32 | label 0 |
| COc1cnc2c(c1)C(=O)c1c-2n(CCCNC(C)C)c(=O)c2cc(F)ccc12 | label 1 |

###

tested on: A498 renal; experiment: NCI-60 one-dose screen, 48 h; details: 10 µM unless noted
The panel holds about 83,000 compounds, 20% with a hit somewhere; the sample as a whole holds those more often. Active and inactive are the calls of the source. The calls were made as follows: active = growth percent below 10; inactive = the rest.
Labels: active, inactive

| molecule | category |
| --- | --- |
| Cc1sc2nc(N3CCCCC3)[nH]c(=O)c2c1C | inactive |
| FC(F)(F)c1ccc(-c2cnc(-c3nn[nH]n3)nc2NC2CCCCCC2)cc1 | inactive |
| CCCCc1ccc(C(N)=O)nc1 | active |
| CCCCCCC(CC#N)(CCC)CCCC (centres undefined) | inactive |
| COc1cc(/C=C2\CN(S(=O)(=O)c3ccc(C)cc3)C/C(=C\c3cc(CN4CCOCC4)c(O)c(OC)c3)C2=O)cc(CN2CCOCC2)c1O | inactive |
| Cc1cc2c(cc1C)[n+](Cc1ccc3ccccc3c1)cn2Cc1ccc2ccccc2c1 | active |
| O=C1Nc2ccc(Cl)cc2[C@@](C#CC2CC2)(C(F)(F)F)O1 | inactive |
| COc1cccc2c1C(=O)c1c(O)c3c(c(O)c1C2=O)C[C@@](O)(C(C)=O)C[C@@H]3O[C@H]1C[C@H](N)[C@H](O)[C@H](C)O1 | active |
| Clc1ccc(C2=NN(c3ccc(Cl)cc3)C(c3cccc(Nc4ccnc5cc(Cl)ccc45)c3)C2)cc1 (centres undefined) | inactive |
